Hi there, I'd appreciate the recorded log10(Ki) for every entry that follows.
molecular target: human TRPV4 (Homo sapiens (Human)); test: Test Example 3: measurement of TRPV4 inhibitory activity (Fluo-3, FDSS 3000, 4α-PDD); format: cell-based; conditions: hTRPV4/CHO cells, calculated from IC50 and 4α-PDD EC50
Hi team, quick reminder: these entries are log10 of Ki (nM).

Consider the following illustrative entries.
Cc1c(C(=O)Nc2cccc(C(F)(F)F)c2)cc(-c2ccccc2)n1CCCN(C)C(=O)c1cccs1 2.93
Cc1c(NC(=O)c2cccc(C(F)(F)F)c2)cc(-c2ccccc2)n1CCCN1CCOCC1 3.16
Cc1c(C(=O)Nc2cccc(C(F)(F)F)c2)cc(-c2ccccc2)n1CCCN(C)C(=O)c1ccncc1 2.51
Cc1c(C(=O)OCc2ccccc2)cc(C(C)(C)C)n1CCCN1CCOCC1 3.60
O=C(Nc1cccc(C(F)(F)F)c1)c1cc(-c2ccccc2)n(CCCN2CCOCC2)c1C(F)(F)F 3.23
Cc1c(C(=O)Nc2cccc(C(F)(F)F)c2)cc(-c2ccccc2)n1CCCO 3.03
COCCCn1c(-c2ccccc2)cc(C(=O)Nc2cccc(C(F)(F)F)c2)c1C 2.85

We next turn to a different compound, shown below.
"Cc1c(C(=O)Nc2cccc(C(F)(F)F)c2)ccn1CCCN1CCOCC1" yielded log10(Ki) of 3.16

###

Test: Metabolism stability test
Type: in vitro ADME
Conditions: human liver microsomes, 30 minutes, compound concentration 0.5 μmol/L
Description: Using a commercially available pooled human hepatic microsomes, a test compound was reacted for a constant time, a remaining rate was calculated by comparing a reacted sample and an unreacted sample, thereby, a degree of metabolism in liver was assessed. […]
Record form. Attribute: remaining rate (metabolism stability). Fill in for each entry.

Cc1c(C(=O)Nc2cccc(C(F)(F)F)c2)cc(C2CCNCC2)n1CCCN1CCOCC1 92.7%
CNCCCn1c(-c2ccccc2)cc(C(=O)Nc2cccc(C(F)(F)F)c2)c1C 92.2%

For each of the compounds below, note its remaining rate (metabolism stability).
1. Cc1c(C(=O)Nc2cccc(C(F)(F)F)c2)cc(-c2ccccc2)n1CCCN
2. Cc1c(C(=O)Nc2cccc(C(F)(F)F)c2)cc(-c2ccccc2)n1CCCN(C)CC[C@H](O)[C@H](O)CO

(A)
96.9%
82.2%

###

Experiment: Metabolism stability test
Type: in vitro ADME
Details: human liver microsomes, 30 minutes, compound concentration 2 μmol/L
Protocol: Using a commercially available pooled human hepatic microsomes, a test compound was reacted for a constant time, a remaining rate was calculated by comparing a reacted sample and an unreacted sample, thereby, a degree of metabolism in liver was assessed. […]
measured-metric: remaining rate (metabolism stability) (%)
One number for each entry, in %.

Known results for molecules:
Cc1c(C(=O)Nc2nccs2)cc(-c2ccccc2)n1CCCN1CCOCC1 89.1
Cc1c(C(=O)Nc2cnccn2)cc(-c2ccccc2)n1CCCN1CCOCC1 71.4
Cc1c(C(=O)Nc2cccc(C(F)(F)F)c2)ccn1CCCN1CCOCC1 85
Cc1c(C(=O)Nc2cccc(C(F)(F)F)c2)cc(-c2ccccc2)n1CCCN(C)C 70.6

Now look at this entry.
molecule "Cc1c(C(=O)Nc2cccc(C(F)(F)F)c2)cc(-c2ccccc2)n1CCCN1CCNCC1" , remaining rate (metabolism stability) observed: 66.3

###

molecular target: UniProt Q9HBA0; assay: Test Example 1: measurement of TRPV4 inhibitory activity (Fluo 4-AM, FLIPR TETRA, 4α-PDD 1 μmol/L); assay type: cell-based; details: hTRPV4/CHO cells, 4α-PDD 1 μmol/L
measured-metric: pIC50
Numbers only, as −log10 of the molar value.

// worked examples, pIC50 included
compound	measured-metric	value
Cc1c(C(=O)Nc2cccc(C(F)(F)F)c2)cc(C(C)(C)C)n1[C@H]1CC[C@H](N(C)C)CC1 [Compound I-113]	pIC50	5.24
CNC(C)CCn1c(C(C)(C)C)cc(C(=O)Nc2cccc(C(F)(F)F)c2)c1C (stereo not drawn) [Compound I-096]	pIC50	6.38
CNC(=O)CCn1c(C(C)(C)C)cc(C(=O)Nc2cccc(C(F)(F)F)c2)c1C [Compound I-092]	pIC50	5.19
Cc1c(S(=O)(=O)NCc2cccc(C(F)(F)F)c2)cc(C(C)(C)C)n1CCCN1CCOCC1 [Compound I-104]	pIC50	5.11
Cc1c(C(=O)Nc2cccc(C(F)(F)F)c2)cc(C(C)(C)C)n1CC(F)(F)CN1CCOCC1 [Compound I-122]	pIC50	6.11

Quick batch: pIC50 for everything below.
1. CCOC(=O)CCn1c(C(C)(C)C)cc(C(=O)Nc2cccc(C(F)(F)F)c2)c1C [Compound I-090]
2. COC(=O)CN1CCC(n2c(C(C)(C)C)cc(C(=O)Nc3cccc(C(F)(F)F)c3)c2C)CC1 [Compound I-107]
3. CC(=O)N(C)CCCn1c(-c2ccccc2)cc(C(=O)Nc2cccc(C(F)(F)F)c2)c1C [Compound I-070]
4. Cc1c(C(=O)Nc2cccc(C(F)(F)F)c2)cc(C(C)(C)C)n1CCCN1CCOCC1 [Compound I-002]
5. Cc1c(C(=O)Nc2cccc(C(F)(F)F)c2)cc(-c2ccccc2)n1CCCN(CCO)CCO [Compound I-016]
6. Cc1c(C(=O)Nc2cccc(C(F)(F)F)c2)cc(C2CCNCC2)n1CCCN1CCOCC1 [Compound I-076]
7. Cc1c(C(=O)Nc2cccc(C(F)(F)F)c2)cc(C(C)(C)C)n1CCC(=O)N1CCOCC1 [Compound I-091]
8. Cc1c(C(=O)Nc2cccc(C(F)(F)F)c2)cc(C#N)n1CCCN1CCOCC1 [Compound I-079]

(A)
1: 5.96; 2: 5.18; 3: 6.23; 4: 6.44; 5: 6.89; 6: 5.01; 7: 5.82; 8: 5.11

Consider the following items and state reported pIC50 for each.
1. Cc1c(C(=O)Nc2cccc(C(F)(F)F)c2)cc(-c2ccccc2)n1CCSCc1c(F)cccc1Cl [Compound I-084]
2. Cc1c(C(=O)Nc2cccc(C(F)(F)F)c2)cc(C(C)(C)C)n1C1CCN(S(C)(=O)=O)CC1 [Compound I-102]
3. Cc1c(C(=O)Nc2cccc(C(F)(F)F)c2)cc(C2CCN(C(=O)OCc3ccccc3)CC2)n1CCCN1CCOCC1 [Compound I-075]

(A)
[5.92, 5.38, 6.57]

// input: 2 compounds below; output: pIC50 for each
1. CN[C@H]1CC[C@H](n2c(C(C)(C)C)cc(C(=O)Nc3cccc(C(F)(F)F)c3)c2C)CC1 [Compound I-112]
2. Cc1c(C(=O)Nc2cccc(C(F)(F)F)c2)cc(C(C)(C)C)n1[C@H]1CC[C@@H](N)CC1 [Compound I-116]

(A)
1. 5.25
2. 5.28

###

molecular target: human TRPV4 (Homo sapiens (Human), UniProt Q9HBA0); test: Test Example 1: measurement of TRPV4 inhibitory activity (Fluo 4-AM, FLIPR TETRA, 4α-PDD 1 μmol/L); format: cell-based; details: hTRPV4/CHO cells, 4α-PDD 1 μmol/L
Sequence (Q9HBA0 whole entry): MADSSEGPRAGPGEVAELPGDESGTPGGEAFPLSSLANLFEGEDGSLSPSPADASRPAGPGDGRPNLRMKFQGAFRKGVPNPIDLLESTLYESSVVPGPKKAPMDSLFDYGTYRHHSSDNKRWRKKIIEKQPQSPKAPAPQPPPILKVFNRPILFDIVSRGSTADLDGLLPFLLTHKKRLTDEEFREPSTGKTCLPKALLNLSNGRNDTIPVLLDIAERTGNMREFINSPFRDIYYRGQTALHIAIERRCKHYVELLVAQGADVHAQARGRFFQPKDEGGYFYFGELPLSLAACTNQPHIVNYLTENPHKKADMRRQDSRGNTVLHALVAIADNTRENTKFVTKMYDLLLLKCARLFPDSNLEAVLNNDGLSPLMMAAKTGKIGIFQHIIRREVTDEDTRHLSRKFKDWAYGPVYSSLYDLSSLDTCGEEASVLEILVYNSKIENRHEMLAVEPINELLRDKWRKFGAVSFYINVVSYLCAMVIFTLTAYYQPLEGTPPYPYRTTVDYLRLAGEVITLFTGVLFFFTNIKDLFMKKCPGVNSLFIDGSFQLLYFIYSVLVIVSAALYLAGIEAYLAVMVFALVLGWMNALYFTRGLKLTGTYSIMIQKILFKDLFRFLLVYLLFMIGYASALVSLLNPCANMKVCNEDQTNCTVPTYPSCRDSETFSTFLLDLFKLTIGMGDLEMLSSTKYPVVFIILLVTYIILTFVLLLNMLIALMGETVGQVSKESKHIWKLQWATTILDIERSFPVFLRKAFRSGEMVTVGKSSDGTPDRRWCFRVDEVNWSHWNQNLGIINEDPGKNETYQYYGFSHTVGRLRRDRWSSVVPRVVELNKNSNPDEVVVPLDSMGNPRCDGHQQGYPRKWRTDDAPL
measured-metric: pIC50
Numbers only, as −log10 of the molar value.

Here's what some known entries look like.
Cc1c(C(=O)Nc2cccc(C(F)(F)F)c2)cc(-c2ccccn2)n1CCCN1CCOCC1 6.47
Cc1c(C(=O)Nc2cccc(C(F)(F)F)c2)ccn1CCCN1CCOCC1 5.05
Cc1c(C(=O)Nc2ccccc2C(F)(F)F)cc(-c2ccccc2)n1CCCN1CCOCC1 5.62
Cc1c(C(=O)Nc2cccc(C(F)(F)F)c2)cc(C(C)(C)C)n1C1CCN(C2CCNCC2)CC1 5.20
Cc1c(C(=O)Nc2ccc(C(F)(F)F)cc2)cc(-c2ccccc2)n1CCCN1CCOCC1 6.47

Okay, now this compound:
# compound "Cc1c(C(=O)Nc2cccc(C(F)(F)F)c2)cc(-c2ccccc2)n1CCCN1CCNC(=O)C1" ; its pIC50 = 6.59
